Data credit: the C3SDB collision cross section collection

TEST SETTINGS: [M+Na]+; instrument: DT; stepped-field
READOUT NAME: collision cross section (N2) (Å²)
Give bare numbers, in Å².

Completed entries (count: 8):
1) O=C(O)[C@H](O)[C@@H](O)[C@H](O)[C@H](O)COP(=O)(O)O    167.16
2) CCCCCCCCCCCCCC(=O)OC[C@@H](O)COP(=O)([O-])OCC[N+](C)(C)C    225.77
3) O=c1nc[nH]c2nc[nH]c12    138.88
4) Nc1nc(=O)c2ncn([C@@H]3O[C@H](CO)[C@@H](O)[C@H]3O)c2[nH]1    177.25
5) NC(=O)CC[C@H](N)C(=O)O    138.11
6) OC[C@@H](O)C(O)[C@@H](O)CO (some centres undefined)    140.79
7) CN(C)c1nc(=O)n(C2CCCCC2)c(=O)n1C    179.49
8) Nc1c(Cl)c(Cl)nc(C(=O)O)c1Cl    156.37

// next item, collision cross section (N2) requested
Exercise: collision cross section (N2) for OC[C@H]1O[C@H](OC[C@H]2OC(O)[C@H](O)[C@@H](O)[C@@H]2O)[C@H](O)[C@@H](O)[C@H]1O (some centres undefined) ?
Solution: 181.14
